Biological target: RORγ receptor (Homo sapiens, UniProt P51449)
Sequence (P51449 269-508): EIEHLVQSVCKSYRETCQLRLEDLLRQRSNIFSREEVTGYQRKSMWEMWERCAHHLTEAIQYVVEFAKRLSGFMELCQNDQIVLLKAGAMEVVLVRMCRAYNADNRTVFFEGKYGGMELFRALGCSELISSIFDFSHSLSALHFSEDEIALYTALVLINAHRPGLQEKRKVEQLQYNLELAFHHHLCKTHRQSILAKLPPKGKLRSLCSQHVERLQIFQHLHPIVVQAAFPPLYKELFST
Assay: RORγ Gal4 reporter assay (Gal4-luciferase, inverse agonist activity)
Format: cell-based
Conditions: Jurkat cells stably over-expressing hRORγ; Gal4-luciferase reporter; overnight incubation; read-out: RORγ Gal4, IC50
Experimental readout: IC50 (nM)

[[record]]
compound = "O=C([C@@H]1CC[C@@]2(S(=O)(=O)c3ccc(F)cc3)c3ccc(C(F)(C(F)(F)F)C(F)(F)F)cc3CC[C@@H]12)N1CCC2(CC1)CNC2=O"
test_target = "RORγ receptor (Homo sapiens, UniProt P51449)"
experimental_readout = "IC50"
reported_result = 14

[[record]]
compound = "Cc1nnsc1C(=O)N[C@@H]1CC[C@@]2(S(=O)(=O)c3ccc(F)cc3)c3ccc(C(F)(C(F)(F)F)C(F)(F)F)cc3CC[C@@H]12"
test_target = "RORγ receptor (Homo sapiens, UniProt P51449)"
experimental_readout = "IC50"
reported_result = 9

[[record]]
compound = "O=C(O)[C@H]1CC[C@H](C(=O)N[C@@H]2CC[C@@]3(S(=O)(=O)c4ccc(F)cc4)c4ccc(C(F)(C(F)(F)F)C(F)(F)F)cc4CC[C@@H]23)CC1"
test_target = "RORγ receptor (Homo sapiens, UniProt P51449)"
experimental_readout = "IC50"
reported_result = 24

[[record]]
compound = "CC(NC(=O)c1ccncn1)[C@@H]1CC[C@@]2(S(=O)(=O)c3ccc(F)cc3)c3ccc(C(F)(C(F)(F)F)C(F)(F)F)cc3CC[C@@H]12 (stereo partly drawn) [Example 261]"
test_target = "RORγ receptor (Homo sapiens, UniProt P51449)"
experimental_readout = "IC50"
reported_result = 34

[[record]]
compound = "CC(NC(=O)c1c[nH]cn1)[C@@H]1CC[C@@]2(S(=O)(=O)c3ccc(F)cc3)c3ccc(C(F)(C(F)(F)F)C(F)(F)F)cc3CC[C@@H]12 (stereo partly drawn)"
test_target = "RORγ receptor (Homo sapiens, UniProt P51449)"
experimental_readout = "IC50"
reported_result = 27

[[record]]
compound = "O=C(N[C@@H]1CC[C@@]2(S(=O)(=O)c3ccc(F)cc3)c3ccc(C(F)(C(F)(F)F)C(F)(F)F)cc3CC[C@@H]12)c1cccnc1O"
test_target = "RORγ receptor (Homo sapiens, UniProt P51449)"
experimental_readout = "IC50"
reported_result = 16


====

Target: RORγ receptor (Homo sapiens)
Test: RORγ Gal4 reporter assay (Gal4-luciferase, inverse agonist activity)
Format: cell-based
Conditions: Jurkat cells stably over-expressing hRORγ; Gal4-luciferase reporter; overnight incubation; read-out: RORγ Gal4, IC50
Experimental readout: IC50 (nM)

[[record]]
compound = "CC(NC(=O)c1ccncc1)[C@@H]1CC[C@@]2(S(=O)(=O)c3ccc(F)cc3)c3ccc(C(F)(C(F)(F)F)C(F)(F)F)cc3CC[C@@H]12 (some centres unmarked) [Example 264]"
experimental_readout = "IC50"
unit_info = "nM"
reported_result = 82

[[record]]
compound = "CS(=O)(=O)N1CC(O)(C(=O)N[C@@H]2CC[C@@]3(S(=O)(=O)c4ccc(F)cc4)c4ccc(C(F)(C(F)(F)F)C(F)(F)F)cc4CC[C@@H]23)C1"
experimental_readout = "IC50"
unit_info = "nM"
reported_result = 28

[[record]]
compound = "O=C(O)C1CCN(C(=O)[C@@H]2CC[C@@]3(S(=O)(=O)c4ccc(F)cc4)c4ccc(C(F)(C(F)(F)F)C(F)(F)F)cc4CC[C@@H]23)C1 (some centres unmarked) [Example 92]"
experimental_readout = "IC50"
unit_info = "nM"
reported_result = 41

[[record]]
compound = "CS(=O)(=O)N1CCC(CNC(=O)[C@@H]2CC[C@@]3(S(=O)(=O)c4ccc(F)cc4)c4ccc(C(F)(C(F)(F)F)C(F)(F)F)cc4CC[C@@H]23)C1 (some centres unmarked) [Example 278]"
experimental_readout = "IC50"
unit_info = "nM"
reported_result = 7

[[record]]
compound = "O=C(O)C12C3C4C1C1C2C3C41C(=O)N[C@@H]1CC[C@@]2(S(=O)(=O)c3ccc(F)cc3)c3ccc(C(F)(C(F)(F)F)C(F)(F)F)cc3CC[C@@H]12 (some centres unmarked)"
experimental_readout = "IC50"
unit_info = "nM"
reported_result = 97

[[record]]
compound = "NS(=O)(=O)N[C@H]1C[C@@H](NC(=O)[C@@H]2CC[C@@]3(S(=O)(=O)c4ccc(F)cc4)c4ccc(C(F)(C(F)(F)F)C(F)(F)F)cc4CC[C@@H]23)C1 [Example 281]"
experimental_readout = "IC50"
unit_info = "nM"
reported_result = 58

[[record]]
compound = "NC(=O)c1c(F)cc(C(=O)N[C@@H]2CC[C@@]3(S(=O)(=O)c4ccc(F)cc4)c4ccc(C(F)(C(F)(F)F)C(F)(F)F)cc4CC[C@@H]23)cc1F"
experimental_readout = "IC50"
unit_info = "nM"
reported_result = 3

[[record]]
compound = "CC(NC(=O)[C@@H]1C[C@@H](F)C(=O)N1)[C@@H]1CC[C@@]2(S(=O)(=O)c3ccc(F)cc3)c3ccc(C(F)(C(F)(F)F)C(F)(F)F)cc3CC[C@@H]12 (some centres unmarked) [Example 268]"
experimental_readout = "IC50"
unit_info = "nM"
reported_result = 21

[[record]]
compound = "O=C1CC2(CCN(C(=O)[C@@H]3CC[C@@]4(S(=O)(=O)c5ccc(F)cc5)c5ccc(C(F)(C(F)(F)F)C(F)(F)F)cc5CC[C@@H]34)CC2)N1"
experimental_readout = "IC50"
unit_info = "nM"
reported_result = 5

[[record]]
compound = "CC(NC(=O)c1ccncc1)[C@@H]1CC[C@@]2(S(=O)(=O)c3ccc(F)cc3)c3ccc(C(F)(C(F)(F)F)C(F)(F)F)cc3CC[C@@H]12 (some centres unmarked) [Example 263]"
experimental_readout = "IC50"
unit_info = "nM"
reported_result = 22

[[record]]
compound = "O=C(N[C@@H]1CC[C@@]2(S(=O)(=O)c3ccc(F)cc3)c3ccc(C(F)(C(F)(F)F)C(F)(F)F)cc3CC[C@@H]12)C1(O)CCS(=O)(=O)CC1 [Example 123]"
experimental_readout = "IC50"
unit_info = "nM"
reported_result = 2


====

Listing of entries alongside the reported IC50.
Target: RORγ receptor (Homo sapiens, UniProt P51449)
Test: RORγ Gal4 reporter assay (Gal4-luciferase, inverse agonist activity)
Assay type: cell-based
Settings: Jurkat cells stably over-expressing hRORγ; Gal4-luciferase reporter; overnight incubation; read-out: RORγ Gal4, IC50
Experimental readout: IC50 (nM)

[[record]]
molecule = "CC(NS(=O)(=O)c1nc[nH]n1)[C@@H]1CC[C@@]2(S(=O)(=O)c3ccc(F)cc3)c3ccc(C(F)(C(F)(F)F)C(F)(F)F)cc3CC[C@@H]12 (stereo partly shown) [Example 275]"
experimental_readout = "IC50"
unit_info = "nM"
reported_result = 65

[[record]]
molecule = "O=C([C@@H]1CC[C@@]2(S(=O)(=O)c3ccc(F)cc3)c3ccc(C(F)(C(F)(F)F)C(F)(F)F)cc3CC[C@@H]12)N1CC(F)(F)C(F)(F)C1"
experimental_readout = "IC50"
unit_info = "nM"
reported_result = 21

[[record]]
molecule = "O=C(NC12CCC(C(=O)O)(CC1)CC2)[C@@H]1CC[C@@]2(S(=O)(=O)c3ccc(F)cc3)c3ccc(C(F)(C(F)(F)F)C(F)(F)F)cc3CC[C@@H]12"
experimental_readout = "IC50"
unit_info = "nM"
reported_result = 31

[[record]]
molecule = "CC(NS(=O)(=O)c1cnn(C)c1)[C@@H]1CC[C@@]2(S(=O)(=O)c3ccc(F)cc3)c3ccc(C(F)(C(F)(F)F)C(F)(F)F)cc3CC[C@@H]12 (stereo partly shown) [Example 272]"
experimental_readout = "IC50"
unit_info = "nM"
reported_result = 27


====

Target: RORγ receptor (Homo sapiens)
Assay: RORγ Gal4 reporter assay (Gal4-luciferase, inverse agonist activity)
Type: cell-based
Conditions: Jurkat cells stably over-expressing hRORγ; Gal4-luciferase reporter; overnight incubation; read-out: RORγ Gal4, IC50
Protocol: General RORγ Gal4 Reporter Assay IC50 values were determined.
pIC50: −log10 of the molar value.
Listing of entries alongside the reported pIC50.
Experimental readout: pIC50

[[record]]
compound = "O=C(Nc1ccnc2[nH]ncc12)[C@@H]1CC[C@@]2(S(=O)(=O)c3ccc(F)cc3)c3ccc(C(F)(C(F)(F)F)C(F)(F)F)cc3CC[C@@H]12 [Example 27]"
reported_result = 7.32

[[record]]
compound = "O=C(O)C1CCN(C(=O)[C@@H]2CC[C@@]3(S(=O)(=O)c4ccc(F)cc4)c4ccc(C(F)(C(F)(F)F)C(F)(F)F)cc4CC[C@@H]23)C1 (stereo partly drawn) [Example 91]"
reported_result = 7.40

[[record]]
compound = "O=C([C@@H]1CC[C@@]2(S(=O)(=O)c3ccc(F)cc3)c3ccc(C(F)(C(F)(F)F)C(F)(F)F)cc3CC[C@@H]12)N1CCS(=O)(=O)CC1 [Example 40]"
reported_result = 7.85

[[record]]
compound = "O=C(O)C1CCCC(NC(=O)[C@@H]2CC[C@@]3(S(=O)(=O)c4ccc(F)cc4)c4ccc(C(F)(C(F)(F)F)C(F)(F)F)cc4CC[C@@H]23)C1 (stereo partly drawn) [Example 99]"
reported_result = 7.85

[[record]]
compound = "CC(C)(O)CC(=O)N[C@@H]1CC[C@@]2(S(=O)(=O)c3ccc(F)cc3)c3ccc(C(F)(C(F)(F)F)C(F)(F)F)cc3NC[C@@H]12 [Example 221]"
reported_result = 7.35

[[record]]
compound = "O=C([C@@H]1CC[C@@]2(S(=O)(=O)c3ccc(F)cc3)c3ccc(C(F)(C(F)(F)F)C(F)(F)F)cc3CC[C@@H]12)N1CCC2(CCNC2=O)CC1 [Example 82]"
reported_result = 7.74

